Entry source: patent US11931327B2

system-under-test: Human RARγ (Homo sapiens)
Sequence (P13631 whole entry): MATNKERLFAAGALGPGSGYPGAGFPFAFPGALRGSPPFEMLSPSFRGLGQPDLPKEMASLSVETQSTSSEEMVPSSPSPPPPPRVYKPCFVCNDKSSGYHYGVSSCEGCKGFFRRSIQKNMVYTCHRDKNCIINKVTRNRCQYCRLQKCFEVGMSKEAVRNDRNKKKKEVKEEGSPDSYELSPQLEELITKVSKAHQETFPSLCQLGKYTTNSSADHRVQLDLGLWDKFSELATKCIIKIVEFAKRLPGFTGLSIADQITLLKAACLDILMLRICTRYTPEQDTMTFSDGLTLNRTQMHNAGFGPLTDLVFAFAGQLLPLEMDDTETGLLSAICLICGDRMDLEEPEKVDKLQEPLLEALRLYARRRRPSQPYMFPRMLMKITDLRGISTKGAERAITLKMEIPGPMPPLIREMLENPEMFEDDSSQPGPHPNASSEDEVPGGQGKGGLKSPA
method-description: RAR agonistic activity, luciferase reporter (3xDR5: luc) in HEK293A cells
condition-parameters: concentration exhibiting luminescence of 500% of Negative control; 24 hours exposure; N=4
measurement-type: RARγ EC500 (nM)
Give bare numbers, in nM.

CC1(C)CCSc2ccc(C#Cc3ccc(C(=O)O)cn3)cc21 48

I'm hoping you can list RARγ EC500 for every compound here, please.
1. COC(=O)c1ccc(C(=O)Nc2ccc3c(c2)C(C)(C)CCC3(C)C)cc1
2. CCOC(=O)c1ccc(C(=O)Nc2ccc3c(c2)C(C)(C)CCC3(C)C)cc1
3. CC1(C)CCC(C)(C)c2cc(NC(=O)c3ccc(C(=O)O)cc3)ccc21
4. COc1ccc(-c2ccc3cc(C(=O)O)ccc3c2)cc1C12CC3CC(CC(C3)C1)C2

1: 72.8; 2: 714; 3: 248; 4: 54

----------
system-under-test: Human RARα (Homo sapiens, UniProt P10276)
Sequence (P10276 whole entry): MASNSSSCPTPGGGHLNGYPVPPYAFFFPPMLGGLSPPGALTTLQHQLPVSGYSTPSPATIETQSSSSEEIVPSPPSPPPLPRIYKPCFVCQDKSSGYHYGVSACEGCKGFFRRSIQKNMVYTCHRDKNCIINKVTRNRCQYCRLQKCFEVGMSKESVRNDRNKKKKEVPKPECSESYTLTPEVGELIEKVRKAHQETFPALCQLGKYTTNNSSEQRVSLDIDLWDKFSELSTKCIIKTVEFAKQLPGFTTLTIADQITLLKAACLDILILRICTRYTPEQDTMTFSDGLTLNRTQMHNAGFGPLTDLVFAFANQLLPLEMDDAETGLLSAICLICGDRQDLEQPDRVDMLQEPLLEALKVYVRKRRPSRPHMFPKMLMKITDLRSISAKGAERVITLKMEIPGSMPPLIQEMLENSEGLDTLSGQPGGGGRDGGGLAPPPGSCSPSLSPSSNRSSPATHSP
method-description: RAR agonistic activity, luciferase reporter (3xDR5: luc) in HEK293A cells
condition-parameters: concentration exhibiting luminescence of 1000% of Negative control; 24 hours exposure; N=4
Kindly supply the reported RARα EC1000 values for the records listed here.
Give bare numbers, in nM.

Check out these entries, answers already filled in.
molecule	measurement-type	value
CCOC(=O)c1ccc(C(=O)Nc2ccc3c(c2)C(C)(C)CCC3(C)C)cc1 [Tamibarotene ethyl ester]	RARα EC1000	21.8
COc1ccc(-c2ccc3cc(C(=O)O)ccc3c2)cc1C12CC3CC(CC(C3)C1)C2 [Adapalene]	RARα EC1000	12
CC1(C)CCSc2ccc(C#Cc3ccc(C(=O)O)cn3)cc21 [Tazarotenic acid]	RARα EC1000	12

Under Human RARα (Homo sapiens, UniProt P10276), report RARα EC1000 for COC(=O)c1ccc(C(=O)Nc2ccc3c(c2)C(C)(C)CCC3(C)C)cc1 [Tamibarotene methyl ester] 0.91

----------
system-under-test: UniProt:P10826
Sequence (P10826 1-448 isoform P10826-2): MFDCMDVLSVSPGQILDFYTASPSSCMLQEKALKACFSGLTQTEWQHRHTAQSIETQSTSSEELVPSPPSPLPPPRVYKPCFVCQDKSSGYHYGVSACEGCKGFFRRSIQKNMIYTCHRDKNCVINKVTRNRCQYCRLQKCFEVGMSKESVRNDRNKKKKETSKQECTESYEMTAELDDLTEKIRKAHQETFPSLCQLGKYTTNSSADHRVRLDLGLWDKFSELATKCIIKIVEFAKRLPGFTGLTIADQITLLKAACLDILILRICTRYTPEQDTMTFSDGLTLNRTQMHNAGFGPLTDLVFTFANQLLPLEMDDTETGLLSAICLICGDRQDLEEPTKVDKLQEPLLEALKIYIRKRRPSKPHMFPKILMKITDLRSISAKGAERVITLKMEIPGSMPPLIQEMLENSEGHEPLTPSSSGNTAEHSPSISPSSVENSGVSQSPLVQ
method-description: RAR agonistic activity, luciferase reporter (3xDR5: luc) in HEK293A cells
condition-parameters: concentration exhibiting luminescence of 1000% of Negative control; 24 hours exposure; N=4
Kindly supply the reported RARβ EC1000 values for the records listed here.
Give bare numbers, in nM.

Check out these entries, answers already filled in.
COC(=O)c1ccc(C(=O)Nc2ccc3c(c2)C(C)(C)CCC3(C)C)cc1 29.1
CC1(C)CCSc2ccc(C#Cc3ccc(C(=O)O)cn3)cc21 4.4
CCOC(=O)c1ccc(C(=O)Nc2ccc3c(c2)C(C)(C)CCC3(C)C)cc1 514
CC1(C)CCC(C)(C)c2cc(NC(=O)c3ccc(C(=O)O)cc3)ccc21 79

Let me know recorded RARβ EC1000 for COc1ccc(-c2ccc3cc(C(=O)O)ccc3c2)cc1C12CC3CC(CC(C3)C1)C2 , thanks. 6.9
